Assay: Cytotoxicity against WHCO1 cells after 48 hrs by MTT assay
Assay type: cell-based
Conditions: Homo sapiens, WHCO1, 48 h
REPORTED_ENDPOINT: IC50 (µM)
Kindly answer with a numeric value in µM, unit omitted.

CC(/C=C/C(Cl)C(C)(Cl)CBr)=C\C=O (configuration not stated) :: 64.8

Note: attention shifts to another entry.
IC50 reported for this compound C=C(C)C(Br)CC(Br)/C(C)=C/C=O (configuration not stated) : 7.5
